# tgt: BIR3 domain of human cIAP1 (amino acids 256 to 363; cIAP1 BIR3) (Homo sapiens (Human), UniProt Q13490)
# Sequence (Q13490 256-363): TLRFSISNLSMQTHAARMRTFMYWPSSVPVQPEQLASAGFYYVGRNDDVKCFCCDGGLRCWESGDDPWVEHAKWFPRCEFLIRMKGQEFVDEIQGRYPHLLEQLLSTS
# measurement.notes: cIAP1 BIR3 binding assay (DELFIA)
# condition: BIR3 domain 10 nM, SMAC peptide 10 nM; values represent the (S)-isomers; * = racemic compound; read-out: cIAP1 BIR-3 IC50
observable: log10 IC50 (log10 of the value in µM)
Units before log transform: µM; reported quantity: IC50; transform: log10.

Worked cases, answers included:
compound	log10 IC50
CNC(C)C(=O)Nc1cc(-c2c(OC)ccc3nccc(C)c23)cc(NC(=O)c2ccc(Cl)cn2)n1 (stereo not drawn) [Example 24]	-3.00
CNC(C)C(=O)Nc1cc(-c2c(C)ccc3ncccc23)cc(NC(=O)c2ccncn2)n1 (stereo not drawn) [Example 37]	-0.37
CNC(C)C(=O)Nc1cc(-c2c(C)ccc3ncccc23)cc(NC(=O)c2cc(-c3ccccc3)on2)n1 (stereo not drawn) [Example 46]	0.80

[Q] Consider the compound CNC(C)C(=O)Nc1cc(-c2c(C)ccc3ncccc23)cc(NC(=O)c2cc3ccccc3o2)n1 (stereo not drawn) [Example 38] and give its measured log10 IC50.
[A] -0.29

[Q] // query: CNC(C)C(=O)Nc1cc(-c2cncc3ccn(C)c23)cc(NC(=O)c2ccc(Cl)cn2)n1 (stereo not drawn) [Example 52]
[A] -3.00

[Q] // query: CNC(C)C(=O)Nc1cc(-c2ccncc2C)cc(NC(=O)c2ccc(Cl)cn2)n1 (stereo not drawn) [Example 47]
[A] -1.77

[Q] // query: CC(N)C(=O)Nc1cc(Cl)cc(NC(=O)c2ccccn2)n1 (stereo not drawn) [Example 56]
[A] 0.66

[Q] // query: CNC(C)C(=O)Nc1cc(-c2cnc3cccc(Cl)n23)cc(NC(=O)c2ccc(Cl)cn2)n1 (stereo not drawn) [Example 18]
[A] -3.00

[Q] // query: Cc1cccc2ccn(-c3cc(NC(=O)c4ccc(Cl)cn4)nc(NC(=O)C(C)N)c3)c12 (stereo not drawn) [Example 55]
[A] -1.35

[Q] // query: CNC(C)C(=O)Nc1cc(-c2ncnc3c(C)nn(C)c23)cc(NC(=O)c2ncc(Cl)cc2C)n1 (stereo not drawn) [Example 61]
[A] -3.00

[Q] // query: CNC(C)C(=O)Nc1cc(-c2c(C)nc3cccc(C)n23)cc(NC(=O)c2ccc(Cl)cn2)n1 (stereo not drawn) [Example 10]
[A] -2.15

[Q] // query: CNC(C)C(=O)Nc1cc(-c2nccc3cccc(C)c23)cc(NC(=O)c2ccc(Cl)cn2)n1 (stereo not drawn) [Example 8]
[A] -3.00

[Q] // query: CNC(C)C(=O)Nc1cc(-c2c(C)ccc3ncccc23)cc(NC(=O)c2cn(C)cn2)n1 (stereo not drawn) [Example 45]
[A] 0.69

[Q] // query: CNC(C)C(=O)Nc1cc(-c2c(C)ccc3ncccc23)cc(NC(=O)c2ccc3cnccc3c2)n1 (stereo not drawn) [Example 44]
[A] 0.50

[Q] // query: CNC(C)C(=O)Nc1cc(-c2c(Cl)c(C)nc3cc(Cl)cc(Cl)c23)cc(NC(=O)c2ccc(Cl)cn2)n1 (stereo not drawn) [Example 27]
[A] -1.74

[Q] // query: CNC(C)C(=O)Nc1cc(-c2c(C)nc3ccccn23)cc(NC(=O)c2ccc(Cl)cn2)n1 (stereo not drawn) [Example 6]
[A] -2.00

[Q] // query: CNC(C)C(=O)Nc1cc(-c2cccc3c2c(C)nn3C)cc(NC(=O)c2ccc(Cl)cn2)n1 (stereo not drawn) [Example 13]
[A] -2.70

[Q] // query: CNC(C)C(=O)Nc1cc(-c2c(C)ccc3ncccc23)cc(NC(=O)c2ccc(C#N)cn2)n1 (stereo not drawn) [Example 30]
[A] -1.44
